# Target System: C-C chemokine receptor type 5 (Homo sapiens, UniProt P51681)
# Sequence (P51681 whole entry): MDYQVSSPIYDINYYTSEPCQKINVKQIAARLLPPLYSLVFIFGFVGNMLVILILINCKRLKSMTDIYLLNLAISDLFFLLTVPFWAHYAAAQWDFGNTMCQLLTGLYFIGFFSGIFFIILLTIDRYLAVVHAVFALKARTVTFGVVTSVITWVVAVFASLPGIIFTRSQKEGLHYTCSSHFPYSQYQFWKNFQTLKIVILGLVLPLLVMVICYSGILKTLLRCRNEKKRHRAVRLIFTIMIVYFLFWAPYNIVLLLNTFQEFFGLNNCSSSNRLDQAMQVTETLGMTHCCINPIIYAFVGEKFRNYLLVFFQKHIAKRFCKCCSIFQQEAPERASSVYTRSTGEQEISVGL
# Method: Binding affinity towards human CCR5 receptor in Chinese hamster ovary (CHO) cells using [125I]-MIP-1 alpha as radioligand
# Assay type: cell-based
Measured Attribute: pIC50
Please treat pIC50 as minus the base-10 logarithm of the molar concentration.

What is its pIC50 for C-C chemokine receptor type 5 (Homo sapiens, UniProt P51681)? Entry: `CN(C[C@@H](CCN1CCC2(CC1)CS(=O)(=O)c1ccccc12)c1ccc(Cl)c(Cl)c1)S(=O)(=O)c1cccs1` 6.92

Repeat for the following compound: CN(C[C@@H](CCN1CCC2(CC1)C[S+]([O-])c1ccccc12)c1ccc(Cl)c(Cl)c1)S(=O)(=O)C1CCCC1 (some centres not stated) 7.00

Repeat for the following compound: `CN(C[C@@H](CCN1CCC2(CC1)CS(=O)(=O)c1ccccc12)c1ccc(Cl)c(Cl)c1)S(=O)(=O)c1ccccc1` 7.00

Repeat for the following compound: `CN(Cc1ccccc1)C[C@@H](CCN1CCC2(CC1)CS(=O)(=O)c1ccccc12)c1ccc(Cl)c(Cl)c1` 6.00

Repeat for the following compound: CN(C)S(=O)(=O)N(C)C[C@@H](CCN1CCC2(CC1)C[S+]([O-])c1ccccc12)c1ccc(Cl)c(Cl)c1 (some centres not stated) 6.47

Repeat for the following compound: `CCN(C[C@@H](CCN1CCC2(CC1)CS(=O)(=O)c1ccccc12)c1ccc(Cl)c(Cl)c1)S(=O)(=O)c1ccccc1` 6.80

Repeat for the following compound: CN(C[C@@H](CCN1CCC2(CC1)C[S+]([O-])c1ccccc12)c1ccc(Cl)c(Cl)c1)S(=O)(=O)c1cccc2ccccc12 (some centres not stated) 6.44

Repeat for the following compound: CN(C[C@@H](CCN1CCC2(CC1)C[S+]([O-])c1ccccc12)c1ccc(Cl)c(Cl)c1)S(=O)(=O)c1ccc(Cl)cc1 (some centres not stated) 7.40

Repeat for the following compound: COc1ccc(S(=O)(=O)N(C)C[C@@H](CCN2CCC3(CC2)C[S+]([O-])c2ccccc23)c2ccc(Cl)c(Cl)c2)cc1 (some centres not stated) 7.40

Repeat for the following compound: CN(C[C@@H](CCN1CCC2(CC1)C[S+]([O-])c1ccccc12)c1ccc(Cl)c(Cl)c1)S(=O)(=O)c1cccs1 (some centres not stated) 7.22

Repeat for the following compound: O=S(=O)(NC[C@@H](CCN1CCC2(CC1)C[S+]([O-])c1ccccc12)c1ccc(Cl)c(Cl)c1)c1ccccc1 (some centres not stated) 6.64

Repeat for the following compound: CN(C[C@@H](CCN1CCC2(CC1)C[S+]([O-])c1ccccc12)c1ccc(Cl)c(Cl)c1)C(=O)Cc1ccccc1 (some centres not stated) 6.19

Repeat for the following compound: `CN(C[C@@H](CCN1CCC2(CC1)CS(=O)(=O)c1ccccc12)c1ccc(Cl)c(Cl)c1)S(=O)(=O)c1cccc([N+](=O)[O-])c1` 6.82

Repeat for the following compound: CN(C[C@@H](CCN1CCC2(CC1)C[S+]([O-])c1ccccc12)c1ccc(Cl)c(Cl)c1)S(=O)(=O)c1ccccc1 (some centres not stated) 7.46

Repeat for the following compound: CN(C[C@@H](CCN1CCC2(CC1)C[S+]([O-])c1ccccc12)c1ccc(Cl)c(Cl)c1)S(=O)(=O)Cc1ccccc1 (some centres not stated) 6.23

Repeat for the following compound: CN(C[C@@H](CCN1CCC2(CC1)C[S+]([O-])c1ccccc12)c1ccc(Cl)c(Cl)c1)S(=O)(=O)c1cn(C)cn1 (some centres not stated) 6.47

Repeat for the following compound: `O=S(=O)(NC[C@@H](CCN1CCC2(CC1)CSc1ccccc12)c1ccc(Cl)c(Cl)c1)c1ccccc1` 5.80

Repeat for the following compound: CN(C[C@@H](CCN1CCC2(CC1)C[S+]([O-])c1ccccc12)c1ccc(Cl)c(Cl)c1)S(=O)(=O)C1CCCCC1 (some centres not stated) 7.00

Repeat for the following compound: CN(C[C@@H](CCN1CCC2(CC1)C[S+]([O-])c1ccccc12)c1ccc(Cl)c(Cl)c1)S(=O)(=O)c1cccc2cccnc12 (some centres not stated) 7.05

Repeat for the following compound: `CN(C[C@@H](CCN1CCC2(CC1)CS(=O)(=O)c1ccccc12)c1ccc(Cl)c(Cl)c1)S(=O)(=O)c1ccc([N+](=O)[O-])cc1` 7.22

Repeat for the following compound: CCCCCCCCS(=O)(=O)N(C)C[C@@H](CCN1CCC2(CC1)C[S+]([O-])c1ccccc12)c1ccc(Cl)c(Cl)c1 (some centres not stated) 5.85

Repeat for the following compound: CN(C[C@@H](CCN1CCC2(CC1)C[S+]([O-])c1ccccc12)c1ccc(Cl)c(Cl)c1)S(=O)(=O)c1ccc(-c2ccccc2)cc1 (some centres not stated) 7.40

Value source: ChEMBL document CHEMBL1133795
